assay system: antithrombin III (plasma purified human AT-III), used as the AT-III/unfractionated heparin complex
protocol: K0.5 ratio to Catalyst Biosciences WT FIXa, AT-III/UFH inhibition assay

[
  {
    "protein": "FIXa-R318Y/R403E/E410N (protein) chain 1: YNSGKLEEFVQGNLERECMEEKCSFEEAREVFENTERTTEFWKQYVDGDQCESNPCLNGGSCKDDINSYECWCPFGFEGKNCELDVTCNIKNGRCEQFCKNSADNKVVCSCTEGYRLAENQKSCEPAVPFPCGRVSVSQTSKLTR chain 2: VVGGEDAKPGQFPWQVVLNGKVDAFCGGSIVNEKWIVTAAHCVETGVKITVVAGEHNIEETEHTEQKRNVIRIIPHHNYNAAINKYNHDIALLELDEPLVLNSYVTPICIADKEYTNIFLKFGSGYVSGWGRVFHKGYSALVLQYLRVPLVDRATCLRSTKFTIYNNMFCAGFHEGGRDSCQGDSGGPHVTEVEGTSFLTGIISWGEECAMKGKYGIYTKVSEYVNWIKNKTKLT",
    "unit tag": "fold",
    "K0.5-mut/K0.5-wt": 366
  }
]
